- System: Non-receptor tyrosine-protein kinase TNK1 (Homo sapiens); also: in the data inactive means no Kd found up to 30 µM
- Sequence (Q13470 whole entry): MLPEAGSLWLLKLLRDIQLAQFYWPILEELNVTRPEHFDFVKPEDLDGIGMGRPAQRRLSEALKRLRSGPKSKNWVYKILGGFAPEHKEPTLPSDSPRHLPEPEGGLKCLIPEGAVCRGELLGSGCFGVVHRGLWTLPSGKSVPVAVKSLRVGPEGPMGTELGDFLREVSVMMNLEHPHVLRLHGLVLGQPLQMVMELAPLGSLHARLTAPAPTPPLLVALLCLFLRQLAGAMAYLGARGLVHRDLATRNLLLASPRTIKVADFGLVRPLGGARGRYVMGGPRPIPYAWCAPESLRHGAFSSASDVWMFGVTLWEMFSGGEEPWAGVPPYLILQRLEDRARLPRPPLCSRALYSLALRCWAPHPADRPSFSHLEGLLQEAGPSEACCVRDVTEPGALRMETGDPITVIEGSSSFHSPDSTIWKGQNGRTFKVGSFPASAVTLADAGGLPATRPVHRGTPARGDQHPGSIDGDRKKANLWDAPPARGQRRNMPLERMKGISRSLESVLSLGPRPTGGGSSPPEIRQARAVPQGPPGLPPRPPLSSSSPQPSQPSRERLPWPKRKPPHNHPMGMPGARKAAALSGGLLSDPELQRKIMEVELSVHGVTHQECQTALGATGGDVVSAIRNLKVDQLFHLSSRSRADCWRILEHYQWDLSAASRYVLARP
Calls of active or inactive are those of the source.
Quantity name: Kd

Compound	Kd
Cc1c(F)cc(C(=O)NC2CC2)cc1-c1ccc(C(=O)NCC(C)(C)C)cn1 [LOSMAPIMOD]	> 30 µM (inactive)
O=c1sn(-c2cccc3ccccc23)c(=O)n1Cc1ccccc1 [TIDEGLUSIB]	> 30 µM (inactive)
C1=C/COCc2cc(ccc2OCCN2CCCC2)Nc2nccc(n2)-c2cccc(c2)COC/1 [PACRITINIB]	0.888 µM (active)

(Q) Given COC(=O)[C@@]1(O)C[C@H]2O[C@]1(C)n1c3ccccc3c3c4c(c5c6ccccc6n2c5c31)C(=O)NC4 [K-252A] , state its recorded Kd.
(A) 0.287 µM (active)

(Q) For O=C(c1ccc(F)c(F)c1Nc1ccc(I)cc1F)N1CC(O)([C@@H]2CCCCN2)C1 [COBIMETINIB] , what is its reported Kd?
(A) > 30 µM (inactive)

(Q) Recorded Kd for CNC(=O)c1ccc(C)c(-n2c(C)cc(OCc3ccc(F)cc3F)c(Br)c2=O)c1 [PH-797804] , please?
(A) > 30 µM (inactive)

(Q) Would you kindly share the measured Kd for CC[C@@H]1C(=O)N(C)c2cnc(Nc3ccc(C(=O)N[C@H]4CC[C@H](N5CCN(CC6CC6)CC5)CC4)cc3OC)nc2N1C(C)C [VOLASERTIB] ?
(A) > 30 µM (inactive)

(Q) Please report the recorded Kd for CN1CCC(CNc2ccc3ncc(-c4cccc(OC(F)(F)F)c4)n3n2)CC1 [SGI-1776] .
(A) > 30 µM (inactive)

====

- System: Serine/threonine-protein kinase Nek1 (Homo sapiens); also: in the data inactive means no Kd found up to 30 µM
- Sequence (Q96PY6 whole entry): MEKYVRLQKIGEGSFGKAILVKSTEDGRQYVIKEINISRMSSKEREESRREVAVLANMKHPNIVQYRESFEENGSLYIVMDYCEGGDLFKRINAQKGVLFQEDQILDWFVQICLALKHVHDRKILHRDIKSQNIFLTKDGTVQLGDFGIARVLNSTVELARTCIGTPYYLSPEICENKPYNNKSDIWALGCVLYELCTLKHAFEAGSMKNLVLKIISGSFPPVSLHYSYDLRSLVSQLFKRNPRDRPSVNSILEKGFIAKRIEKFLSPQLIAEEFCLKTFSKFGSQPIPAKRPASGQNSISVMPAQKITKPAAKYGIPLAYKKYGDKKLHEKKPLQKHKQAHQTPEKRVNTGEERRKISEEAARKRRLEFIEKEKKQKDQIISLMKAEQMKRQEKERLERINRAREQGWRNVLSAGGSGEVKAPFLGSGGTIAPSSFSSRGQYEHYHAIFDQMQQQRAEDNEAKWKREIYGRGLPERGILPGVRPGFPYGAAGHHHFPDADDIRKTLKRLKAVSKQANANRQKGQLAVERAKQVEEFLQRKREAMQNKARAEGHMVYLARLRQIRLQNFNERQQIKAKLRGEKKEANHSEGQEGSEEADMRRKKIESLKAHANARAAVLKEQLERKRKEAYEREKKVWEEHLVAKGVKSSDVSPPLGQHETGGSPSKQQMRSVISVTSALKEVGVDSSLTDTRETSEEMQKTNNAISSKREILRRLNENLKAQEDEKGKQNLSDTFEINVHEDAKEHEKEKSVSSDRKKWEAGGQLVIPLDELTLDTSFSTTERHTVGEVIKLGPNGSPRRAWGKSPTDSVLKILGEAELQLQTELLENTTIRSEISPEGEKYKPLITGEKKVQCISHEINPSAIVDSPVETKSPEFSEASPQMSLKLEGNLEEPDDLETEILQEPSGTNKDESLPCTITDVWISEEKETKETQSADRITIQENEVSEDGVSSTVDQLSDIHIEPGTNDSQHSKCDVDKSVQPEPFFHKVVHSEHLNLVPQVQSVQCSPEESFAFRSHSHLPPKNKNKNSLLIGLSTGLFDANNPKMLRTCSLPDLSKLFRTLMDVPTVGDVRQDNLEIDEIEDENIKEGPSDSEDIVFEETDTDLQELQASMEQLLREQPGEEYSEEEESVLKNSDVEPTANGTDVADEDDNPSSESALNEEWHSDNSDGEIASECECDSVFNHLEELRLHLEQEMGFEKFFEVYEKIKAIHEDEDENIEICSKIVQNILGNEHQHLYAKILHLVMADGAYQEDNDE
The source made the active and inactive calls.
Please reply with one of these outcomes: active, inactive

Some entries whose results are on file:
Compound	System	Discrete label
C[C@@H]1CN(Cc2ccc(F)cc2)[C@@H](C)CN1C(=O)c1cc2c(C(=O)C(=O)N(C)C)cn(C)c2cc1Cl [TALMAPIMOD]	Serine/threonine-protein kinase Nek1 (Homo sapiens)	inactive
CN(C)C(=O)c1cc2cnc(Nc3ccc(N4CCNCC4)cn3)nc2n1C1CCCC1 [RIBOCICLIB]	Serine/threonine-protein kinase Nek1 (Homo sapiens)	inactive
COCCNCc1ccc(-c2cc3nccc(Oc4ccc(NC(=S)NC(=O)Cc5ccc(F)cc5)cc4F)c3s2)nc1 [GLESATINIB]	Serine/threonine-protein kinase Nek1 (Homo sapiens)	inactive

(Q) What outcome does the record of this test show for O=C(c1ccc(F)c(F)c1Nc1ccc(I)cc1F)N1CC(O)([C@@H]2CCCCN2)C1 [COBIMETINIB] ?
(A) inactive

(Q) Which result was noted for this compound in the test: CC[C@H](Nc1ncnc2[nH]cnc12)c1nc2cccc(F)c2c(=O)n1-c1ccccc1 [IDELALISIB]
(A) inactive

(Q) Hello, I am checking results. What call was entered for CCc1cnn2c(NCc3ccc[n+]([O-])c3)cc(N3CCCC[C@H]3CCO)nc12 [DINACICLIB] ?
(A) inactive

(Q) Tell me the recorded outcome of this test for Cc1ccc(NC(=O)c2ccc(CN3CC[C@H](N(C)C)C3)c(C(F)(F)F)c2)cc1Nc1nccc(-c2cncnc2)n1 [BAFETINIB] .
(A) inactive

(Q) Kindly provide the recorded test outcome for the following compound: Cc1nc(N)sc1-c1ccnc(Nc2ccc(N3CCOCC3)cc2)n1 [CYC-116]
(A) active

====

Kd values by entry
- System: MAP kinase-activated protein kinase 2 (Homo sapiens); also: in the data inactive means no Kd found up to 30 µM
- Sequence (P49137 whole entry): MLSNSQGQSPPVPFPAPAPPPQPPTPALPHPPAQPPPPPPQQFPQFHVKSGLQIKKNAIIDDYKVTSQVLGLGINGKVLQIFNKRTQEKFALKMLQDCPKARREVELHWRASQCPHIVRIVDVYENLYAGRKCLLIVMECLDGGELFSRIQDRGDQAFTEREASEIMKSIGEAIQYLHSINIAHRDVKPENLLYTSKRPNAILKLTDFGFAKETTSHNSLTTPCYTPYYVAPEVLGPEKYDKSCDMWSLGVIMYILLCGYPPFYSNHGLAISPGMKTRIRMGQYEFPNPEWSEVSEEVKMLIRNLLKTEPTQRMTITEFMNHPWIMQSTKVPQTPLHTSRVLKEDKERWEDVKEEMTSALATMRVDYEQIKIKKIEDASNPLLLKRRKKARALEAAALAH
Activity calls are given as the source filed them.

(Q) Field: Kd (MAP kinase-activated protein kinase 2 (Homo sapiens)). Entry: Cn1cc(-c2ccc(F)c(C(F)(F)F)c2)nc1C1CCN(c2ncnc3[nH]ncc23)CC1 [LY-2584702]
(A) > 30 µM (inactive)

(Q) Lab note: need Kd for CCS(=O)(=O)N1CC(CC#N)(n2cc(-c3ncnc4[nH]ccc34)cn2)C1 [BARICITINIB] on MAP kinase-activated protein kinase 2 (Homo sapiens), anyone have it?
(A) > 30 µM (inactive)

(Q) Query for MAP kinase-activated protein kinase 2 (Homo sapiens): what Kd does the record show for COc1cc2nccc(Oc3ccc(NC(=O)Nc4cc(C)on4)c(Cl)c3)c2cc1OC [TIVOZANIB] ?
(A) > 30 µM (inactive)

(Q) Report Kd for COCCNCc1ccc(-c2cc3nccc(Oc4ccc(NC(=S)NC(=O)Cc5ccc(F)cc5)cc4F)c3s2)nc1 [GLESATINIB] tested on MAP kinase-activated protein kinase 2 (Homo sapiens). Also: in the data inactive means no Kd found up to 30 µM.
(A) > 30 µM (inactive)

====

- System: Serine/threonine-protein kinase B-raf (Homo sapiens, UniProt P15056); also: in the data inactive means no Kd found up to 30 µM
- Sequence (P15056 whole entry): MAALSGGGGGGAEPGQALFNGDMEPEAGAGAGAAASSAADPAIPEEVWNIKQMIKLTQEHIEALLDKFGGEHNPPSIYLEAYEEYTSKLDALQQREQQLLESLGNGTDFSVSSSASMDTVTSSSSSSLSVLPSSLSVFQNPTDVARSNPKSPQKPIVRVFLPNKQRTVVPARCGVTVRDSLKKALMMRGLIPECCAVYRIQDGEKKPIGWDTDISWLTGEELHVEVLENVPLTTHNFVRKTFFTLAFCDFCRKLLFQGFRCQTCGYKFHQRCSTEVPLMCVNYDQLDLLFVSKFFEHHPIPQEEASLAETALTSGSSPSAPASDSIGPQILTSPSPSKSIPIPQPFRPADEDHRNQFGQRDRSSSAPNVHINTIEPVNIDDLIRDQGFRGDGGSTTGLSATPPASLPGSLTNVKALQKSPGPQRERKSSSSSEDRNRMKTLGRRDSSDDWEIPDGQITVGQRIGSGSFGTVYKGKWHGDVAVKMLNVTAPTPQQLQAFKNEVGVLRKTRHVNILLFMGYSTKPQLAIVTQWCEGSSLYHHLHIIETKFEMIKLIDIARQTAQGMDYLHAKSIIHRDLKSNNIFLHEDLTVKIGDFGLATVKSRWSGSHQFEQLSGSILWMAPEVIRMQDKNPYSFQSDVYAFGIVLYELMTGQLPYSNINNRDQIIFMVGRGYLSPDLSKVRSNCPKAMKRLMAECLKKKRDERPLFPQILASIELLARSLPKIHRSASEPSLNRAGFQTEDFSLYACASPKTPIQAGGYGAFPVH
Calls of active or inactive are those of the source.
# output must be one of true (1) = active, false (0) = inactive

Here's what some known entries look like.
Compound	Discrete label
COc1cc(OC)c(/C=C/S(=O)(=O)Cc2ccc(OC)c(NCC(=O)O)c2)c(OC)c1	false (0)
CCN1CCN(Cc2ccc(-c3cc4c(N[C@H](C)c5ccccc5)ncnc4[nH]3)cc2)CC1	false (0)
Cc1ccc(-n2nc(C(C)(C)C)cc2NC(=O)NCc2cc(F)ccc2Oc2ccc3c(cnn3CCO)c2)cc1	true (1)

(Q) Look up the recorded call for `C[C@@H](Nc1cc(F)cc(F)c1)c1cc(C(=O)N(C)C)cc2c(=O)cc(N3CCOCC3)oc12` in this test.
(A) false (0)

(Q) What is the recorded call for this compound in the test? `Cc1cc(Nc2cc(N3CCN(C)CC3)nc(/C=C/c3ccccc3)n2)n[nH]1`
(A) false (0)

(Q) Hi, sorry to bother you, what did the test record for `Cc1cc([C@@H](C)Nc2ccccc2C(=O)O)c2nc(N3CCOCC3)cc(=O)n2c1` ?
(A) false (0)

(Q) So what was the verdict on `O=C(c1ccc(F)c(F)c1Nc1ccc(I)cc1F)N1CC(O)([C@@H]2CCCCN2)C1` in this test?
(A) false (0)

(Q) Recorded test call requested for `Cn1ncc(Cl)c1-c1cc(C(=O)N[C@H](CN)Cc2cccc(F)c2)sc1Cl`
(A) false (0)

(Q) What outcome does the record of this test show for `CC(=O)Nc1cccc(-n2c(=O)n(C3CC3)c(=O)c3c(Nc4ccc(I)cc4F)n(C)c(=O)c(C)c32)c1` ?
(A) false (0)

(Q) # lookup: test call for `CC(C)Nc1cc(-c2c[nH]c(C(=O)N[C@H](CO)c3cccc(Cl)c3)c2)c(Cl)cn1`
(A) false (0)

(Q) Recorded test call requested for `COCCNCc1ccc(-c2cc3nccc(Oc4ccc(NC(=S)NC(=O)Cc5ccc(F)cc5)cc4F)c3s2)nc1`
(A) false (0)

(Q) Dear colleague, could you share the recorded outcome for `CO[C@H]1C[C@@H]2CC[C@@H](C)[C@@](O)(O2)C(=O)C(=O)N2CCCC[C@H]2C(=O)O[C@H]([C@H](C)C[C@@H]2CC[C@@H](OCCO)[C@H](OC)C2)CC(=O)[C@H](C)/C=C(\C)[C@@H](O)[C@@H](OC)C(=O)[C@H](C)C[C@H](C)/C=C/C=C/C=C/1C` when you have a moment?
(A) false (0)

(Q) What outcome does the record of this test show for `CCc1cnn2c(NCc3ccc[n+]([O-])c3)cc(N3CCCC[C@H]3CCO)nc12` ?
(A) false (0)

(Q) # lookup: test call for `Cn1cc(-c2ccc3nnc(C(F)(F)c4ccc5ncccc5c4)n3n2)cn1`
(A) false (0)

(Q) Could you please tell me the result logged for `C1=C/COCc2cc(ccc2OCCN2CCCC2)Nc2nccc(n2)-c2cccc(c2)COC/1` in this assay?
(A) false (0)

(Q) Recorded test call requested for O=C(Nc1ccc(-c2ccnc(Nc3ccc(N4CCOCC4)cc3)n2)cc1)C1CCCN1 (stereo unspecified)
(A) false (0)

(Q) Recorded test outcome, item `CNC(=O)c1ccc(-c2cnc3ncc(Cc4ccc5ncccc5c4)n3n2)cc1F`
(A) false (0)

(Q) Record lookup: outcome of this test for `Cn1cc(-c2ccc(F)c(C(F)(F)F)c2)nc1C1CCN(c2ncnc3[nH]ncc23)CC1` ?
(A) false (0)

(Q) Call for entry `CNC(=O)CN1CCC(Oc2cc3c(Nc4cccc(Cl)c4F)ncnc3cc2OC)CC1` :
(A) false (0)

(Q) GET /call?item= `C[C@@H](c1ccc2nccn2c1)n1nnc2ncc(-c3cnn(C)c3)nc21` returns the recorded outcome of this test.
(A) false (0)

(Q) Which outcome was assigned to `CNC(=O)c1ccc(C)c(-n2c(C)cc(OCc3ccc(F)cc3F)c(Br)c2=O)c1` in this test?
(A) false (0)

(Q) What call does the record list for `CN(C)C(=O)c1cc2cnc(Nc3ccc(N4CCNCC4)cn3)nc2n1C1CCCC1` ?
(A) false (0)

(Q) # lookup: test call for `O=C(O)[C@]1(Cc2cccc(Nc3nccs3)n2)CC[C@@H](Oc2cccc(Cl)c2F)CC1`
(A) false (0)

(Q) Test call, this compound: `OCCn1cc(-c2cnc3nnn(Cc4ccc5ncccc5c4)c3n2)cn1`
(A) false (0)

(Q) Call for entry `N[C@@H]1CCCN(c2c(/C=C3\SC(=O)NC3=O)cccc2-c2ccccc2)C1` :
(A) false (0)
